Data credit: patent US20170022281A1

- tested.target: cyno PRLR on Baf3-cyPRLR cells (cyno)
- assay.remarks: cell-based or functional assay
Form field: Baf3-cyPRLR proliferation IC50 (one value per entry).
Only the number, expressed in µg/mL, is required.

Check out these entries, answers already filled in.
binder	Baf3-cyPRLR proliferation IC50 / µg/mL
chAb5 (antibody, human IgG1, kappa, V domains shown, chimeric, murine variable and human G1/kappa constant regions) VH: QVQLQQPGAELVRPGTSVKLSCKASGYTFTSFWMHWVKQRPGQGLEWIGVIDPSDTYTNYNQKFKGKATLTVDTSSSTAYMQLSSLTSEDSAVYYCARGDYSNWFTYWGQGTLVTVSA VL: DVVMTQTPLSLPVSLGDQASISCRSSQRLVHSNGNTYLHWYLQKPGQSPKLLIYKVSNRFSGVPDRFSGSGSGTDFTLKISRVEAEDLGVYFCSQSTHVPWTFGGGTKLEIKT	0.42
Ab49 (antibody, human IgG1, kappa, V domains shown, humanized from Ab8; G1; also called Ab3 HC.1a and Ab3 LC.1b) VH: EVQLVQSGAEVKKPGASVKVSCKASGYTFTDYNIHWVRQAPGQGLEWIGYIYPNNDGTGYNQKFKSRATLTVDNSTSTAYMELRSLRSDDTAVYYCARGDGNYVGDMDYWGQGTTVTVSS VL: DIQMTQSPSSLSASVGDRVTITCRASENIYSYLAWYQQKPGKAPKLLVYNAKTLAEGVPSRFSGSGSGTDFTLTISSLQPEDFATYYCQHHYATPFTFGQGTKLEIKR	3.49
Ab18 (antibody, human IgG1, kappa, V domains shown, humanized from Ab6; G1; also called Ab1 HC.1a and Ab1 LC.1) VH: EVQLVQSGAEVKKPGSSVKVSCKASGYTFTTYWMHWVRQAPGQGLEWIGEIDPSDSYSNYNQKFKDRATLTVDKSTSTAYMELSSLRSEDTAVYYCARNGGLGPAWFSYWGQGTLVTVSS VL: DIQMTQSPSSVSASVGDRVTITCKASQYVGTAVAWYQQKPGKAPKLLIYSASNRYTGVPSRFSGSGSGTDFTLTISSLQPEDFATYYCQQYSSYPWTFGGGTKVEIKR	0.4
Ab6 (antibody, V domains shown, murine monoclonal, isotype G1; also called murine Ab6) VH: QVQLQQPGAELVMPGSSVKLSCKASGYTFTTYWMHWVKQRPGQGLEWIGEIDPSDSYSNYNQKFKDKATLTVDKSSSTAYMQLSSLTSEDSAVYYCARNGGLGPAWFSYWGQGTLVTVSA VL: DIVMTQSQKFMSTTVGDRVSITCKASQYVGTAVAWYQQKPGQSPKLLIYSASNRYTGVPDRFTDSGSGTDFTLTISNLQSEDLADYFCQQYSSYPWTFGGGTKLEIK	0.44
Ab17 (antibody, human IgG1, kappa, V domains shown, humanized from Ab6; G1; also called Ab1 HC.1 and Ab1 LC.2a) VH: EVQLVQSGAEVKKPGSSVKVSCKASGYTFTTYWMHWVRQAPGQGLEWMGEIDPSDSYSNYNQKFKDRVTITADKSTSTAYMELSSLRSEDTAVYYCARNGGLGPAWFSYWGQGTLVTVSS VL: EIVMTQSPATLSVSPGERATLSCKASQYVGTAVAWYQQKPGQSPRLLIYSASNRYTGVPARFSDSGSGTEFTLTISSLQSEDFAVYFCQQYSSYPWTFGGGTKVEIKR	0.27

-- ask What Baf3-cyPRLR proliferation IC50 value was documented for this binder, Ab5 (antibody, V domains shown, murine monoclonal, isotype G2a; also called murine Ab5) VH: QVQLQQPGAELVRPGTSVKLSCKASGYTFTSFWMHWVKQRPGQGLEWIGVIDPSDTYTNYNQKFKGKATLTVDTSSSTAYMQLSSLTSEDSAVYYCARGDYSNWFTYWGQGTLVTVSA VL: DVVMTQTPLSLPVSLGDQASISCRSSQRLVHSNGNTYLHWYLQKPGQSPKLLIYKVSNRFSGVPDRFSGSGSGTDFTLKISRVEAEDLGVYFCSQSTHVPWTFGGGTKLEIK ?
-- reply 0.38

-- ask And for Ab14 (antibody, human IgG1, kappa, V domains shown, humanized from Ab6; G1; also called Ab1 HC.1 & Ab1 LC.1) VH: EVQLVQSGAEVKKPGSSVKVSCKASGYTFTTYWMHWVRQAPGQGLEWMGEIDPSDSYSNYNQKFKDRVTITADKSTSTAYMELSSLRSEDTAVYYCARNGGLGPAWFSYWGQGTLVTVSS VL: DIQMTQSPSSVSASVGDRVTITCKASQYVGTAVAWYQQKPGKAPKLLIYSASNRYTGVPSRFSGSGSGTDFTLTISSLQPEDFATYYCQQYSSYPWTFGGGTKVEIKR ?
-- reply 1.15

-- ask And for Ab52 (antibody, human IgG1, kappa, V domains shown, humanized from Ab8; G1; also called Ab3 HC.1b and Ab3 LC.1b) VH: EVQLVQSGAEVKKPGASVKVSCKASGYTFTDYNIHWVRQAPGQGLEWIGYIYPNNDGTGYAQKLQGRVTMTVDTSTSTAYMELRSLRSDDTAVYYCARGDGNYVGDMDYWGQGTTVTVSS VL: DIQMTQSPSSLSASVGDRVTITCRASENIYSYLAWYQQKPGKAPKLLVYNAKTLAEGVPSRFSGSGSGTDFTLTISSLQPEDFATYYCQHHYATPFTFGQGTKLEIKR ?
-- reply 305

-- ask And for Ab48 (antibody, human IgG1, kappa, V domains shown, humanized from Ab8; G1; also called Ab3 HC.1a and Ab3 LC.1a) VH: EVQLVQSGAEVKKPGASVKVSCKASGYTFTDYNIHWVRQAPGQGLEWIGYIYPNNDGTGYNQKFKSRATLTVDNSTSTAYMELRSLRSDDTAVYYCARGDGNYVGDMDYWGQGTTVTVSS VL: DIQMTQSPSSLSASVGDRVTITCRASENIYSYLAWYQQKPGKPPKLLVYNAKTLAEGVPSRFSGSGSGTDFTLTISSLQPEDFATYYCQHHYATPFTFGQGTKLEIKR ?
-- reply 4.87

-- ask And for Ab44 (antibody, human IgG1, kappa, V domains shown, humanized from Ab8; G1; also called Ab3 HC.1 and Ab3 LC.1) VH: EVQLVQSGAEVKKPGASVKVSCKASGYTFTDYNIHWVRQAPGQGLEWMGYIYPNNDGTGYNQKFKSRVTMTTDTSTSTAYMELRSLRSDDTAVYYCARGDGNYVGDMDYWGQGTTVTVSS VL: DIQMTQSPSSLSASVGDRVTITCRASENIYSYLAWYQQKPGKAPKLLIYNAKTLAEGVPSRFSGSGSGTDFTLTISSLQPEDFATYYCQHHYATPFTFGQGTKLEIKR ?
-- reply 1.76
